Test: GDH-TPI coupling enzyme inhibitors, primary screen, artefact control for M. tuberculosis FBA inhibitor project, biochemical, absorbance, full deck (AID 588335);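 also: 0% = DMSO wells and 100% = wells lacking the enzyme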
Settings: GDH-TPI coupled enzyme counterscreen, NADH absorbance; at 4.8 µM
Among all 360,000 compounds or so, about 4,500 (1.2%) were called active. Rule as the data show it: active = inhibition above about 30%; inactive = the rest. This excerpt belongs to a sample that is enriched for actives.
Just give me one of these, please: 1 (yes) = active, 0 (no) = inactive

[[record]]
compound = "CSc1ncccc1C(=O)Nc1nc2ccc(F)cc2s1"
answer_label = "0 (no)"


Switching to the query record.
Test call, this compound: CC(C)(C)c1ccc(NC(=O)COC(=O)CCc2nc3ccccc3c(=O)[nH]2)cc1
0 (no)
